Please respond with reported kon for every item in the list.
molecular target: T1, human CD8A-Fc (recombinant human CD8 alpha fused to Fc fragment of human IgG1) (human, UniProt P01732 22-182, limits assumed); assay: SPR on recombinant human CD8 alpha after DFO conjugation, higher affinity population
T1 construct: SPR ligand, captured by goat anti-human Fc; also called hCD8A-Fc; recombinant CD8 alpha; not shown: linker with flag (and polyhistidine) tag and Fc fragment of human IgG1; depends on which of the two constructs was used
T1 sequence (P01732 22-182 limits assumed): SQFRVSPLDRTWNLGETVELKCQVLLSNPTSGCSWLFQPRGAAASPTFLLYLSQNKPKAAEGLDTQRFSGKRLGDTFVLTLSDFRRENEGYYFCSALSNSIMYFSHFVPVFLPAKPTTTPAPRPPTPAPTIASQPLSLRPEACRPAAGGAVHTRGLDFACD
Give the value, in units of M⁻¹ s⁻¹, as a plain number.

Query :: Tell me measured kon for CD8S365-DFO (designed binder, deferoxamine (DFO) conjugated to the free cysteine introduced by E54C, DFO conjugate of CD8S365) LPAPKNLVVSRVTEDSARLSWTAPDAAFDSFGILYYEPVDSGEAITLPVPGSCRSYDLTGLKPGTEYWVVITGVKGGAPSTPLGTIFTT please.
Result :: 68000

Query :: Tell me measured kon for CD8S370-DFO (designed binder, deferoxamine (DFO) conjugated to the free cysteine introduced by E54C, DFO conjugate of CD8S370) LPAPKNLVVSRVTEDSARLSWTAPDAAFDSFAITYIEKEHIEDGEAIVLTVPGSCRSYDLTGLKPGTEYWVPIWGVKGGANSWPLSAIFTT please.
Result :: 46400

Query :: Tell me measured kon for CD8S367-DFO (designed binder, deferoxamine (DFO) conjugated to the free cysteine introduced by E54C, DFO conjugate of CD8S367) LPAPKNLVVSRVTEDSARLSWTAPDAAFDSFAIAYPEWPPQGEAIVLTVPGSCRSYDLTGLKPGTEYFVVIYGVKGGSYSAPLSAIFTT please.
Result :: 84500

Query :: Tell me measured kon for CD8S369-DFO (designed binder, deferoxamine (DFO) conjugated to the free cysteine introduced by E54C, DFO conjugate of CD8S369) LPAPKNLVVSRVTEDSARLSWAKRPGAFDSFLIQYQESEKVGEAIVLTVPGSCRSYDLTGLKPGTEYTVSIYGVDVKYDIDSRPISSNPLSAIFTT please.
Result :: 37300

Query :: Tell me measured kon for CD8S368-DFO (designed binder, deferoxamine (DFO) conjugated to the free cysteine introduced by E54C, DFO conjugate of CD8S368) LPAPKNLVVSRVTEDSARLSWTAPDAAFDSFQIAYPEWPPPGEAIVLTVPGSCRSYDLTGLKPGTEYFVIIQGVKGGVESWPLSAIFTT please.
Result :: 108000

Query :: Tell me measured kon for CD8S366-DFO (designed binder, deferoxamine (DFO) conjugated to the free cysteine introduced by E54C, DFO conjugate of CD8S366) LPAPKNLVVSRVTEDSARLSWTAPDAAFDSFWITYPEWPDPGGEAIVLTVPGSCRSYDLTGLKPGTEYFVVIYGVKGGEIYSPLSAIFTT please.
Result :: 79500
